Molecular target: UniProt Q96LA9
Sequence (Q96LA9 whole entry): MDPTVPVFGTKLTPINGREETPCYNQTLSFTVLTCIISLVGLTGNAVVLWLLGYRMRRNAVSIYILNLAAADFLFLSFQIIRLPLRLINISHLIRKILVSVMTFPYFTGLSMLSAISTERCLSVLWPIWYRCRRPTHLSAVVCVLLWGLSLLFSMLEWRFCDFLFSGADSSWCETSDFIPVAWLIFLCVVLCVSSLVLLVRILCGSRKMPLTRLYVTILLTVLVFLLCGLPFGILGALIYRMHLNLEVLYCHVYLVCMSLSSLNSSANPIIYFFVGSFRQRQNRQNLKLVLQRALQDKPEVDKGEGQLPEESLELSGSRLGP
Assay: MRGPR X4 antagonist activity, IP-One Gq HTRF assay in stably transfected HEK cells (versus agonist bilirubin, deoxycholic acid, conjugated bilirubin, urobilin, obeticholic acid or BAR502)
Format: cell-based
Set-up: expressed in transfected cells; host or cells: HEK cells, stably transfected
Conditions: versus 10 μM Bilirubin agonist; HEK cells expressing human MRGPR X4; read-out: MRGPR4 Antagonist Activity
I'd be grateful if you could share measured IC50 for these entries.

-- ask Fill in: IC50 of O=C(O)c1cccc(COc2ccc(OC(F)(F)F)cc2)c1 is ___
-- reply 0.1 to 0.5 µM

-- ask Fill in: IC50 of CS(=O)(=O)NC(=O)c1cccc(COc2ccc(C(F)(F)F)cc2Cl)c1 is ___
-- reply 0.1 to 0.5 µM

-- ask Fill in: IC50 of CCc1c(COc2ccc(C(F)(F)F)cc2Cl)cccc1C(=O)O is ___
-- reply 1 to 2.5 µM

-- ask Fill in: IC50 of N#Cc1cc(COc2ccc(OC(F)(F)F)cc2Cl)cc(C(=O)O)c1 is ___
-- reply < 0.1 µM

-- ask Fill in: IC50 of COC(=O)c1cccc(COc2ccc(C(F)(F)F)cc2Cl)c1 is ___
-- reply 0.1 to 0.5 µM
